# assay-method-text: solvent given as SMILES
# assay-conditions: in CCOC(C)=O
Each entry below carries its recorded fluorescence lifetime.
Numeric only. Scale: ns

# compound, meas-value
records = [
    ("Cc1ccc(C2=C3C=C(I)C=[N+]3[B-](F)(F)n3cc(I)cc32)cc1", 0.069),
]

## Input For COc1cc2c(cc1/C=C/C(=C(C#N)C#N)c1ccccc1)c1ccccc1n2C , write its fluorescence lifetime.
## Output 6.74

## Input For CN(C)c1ccc2nc(/C=C/c3ccccc3)c(=O)oc2c1 , write its fluorescence lifetime.
## Output 3.58

* * *

# assay-method-text: solvent given as SMILES
# assay-conditions: in CS(C)=O
readout-kind: fluorescence lifetime (ns)
Numeric only. Scale: ns

# molecule, fluorescence lifetime, ns
records = [
    ("c1cnc2c(c1)c1nc(-c3ccc(-c4nc5c6cccnc6c6ncccc6c5[nH]4)cc3)[nH]c1c1cccnc12", 1.36),
    ("COC(=O)C(Cc1ccc2oc(-c3ccc4c(c3)c3ccccc3n4-c3ccccc3)nc2c1)NC(=O)OC(C)(C)C (configuration not stated)", 1.69),
    ("CN(C)c1ccc(/C=C/C=C2\\CC/C(=C\\C=C\\c3ccc(N(C)C)cc3)C2=O)cc1", 0.58),
    ("COc1cc2c(cc1/C=C/C1=CC(=C(C#N)C#N)CC(C)(C)C1)c1ccccc1n2C", 8.27),
    ("CCN(CC)c1cccc(C=O)c1", 21.9),
]

## Input For N#Cc1ccc2cc[nH]c2c1 , write its fluorescence lifetime.
## Output 4.3

## Input For Cc1cc(C#Cc2ccccc2)c2ccc3c(C#Cc4ccccc4)cc(C#Cc4ccccc4)c4ccc1c2c43 , write its fluorescence lifetime.
## Output 1.89

## Input For COc1cc(OC)cc(-c2ccc(-c3ccc(C#N)s3)s2)c1 , write its fluorescence lifetime.
## Output 0.35

Ref: the Deep4Chem optical property database
